Tested on: T cells (patient PBMCs)
testSummary: T-cell proliferation assay (3H-thymidine) of patient PBMC/T cells with hTERT peptides or transfected DC
Assay type: cell-based, human
testConditions: patient Melanoma P1, GV1001-vaccinated, clinical non-responder, one time point
measuredAttribute: proliferative T-cell response (SI)
Give bare numbers.

[
  {
    "polymerSequence": "ALFSVLNYERARRPGLLGASVLGLDDIHRA [SEQ ID NO. 1]",
    "proliferative T-cell response (SI)": 1.6
  },
  {
    "polymerSequence": "EARPALLTSRLRFIPK (listed as Homo sapiens) [GV1001]",
    "proliferative T-cell response (SI)": 1.4
  },
  {
    "polymerSequence": "RTFVLRVRAQDPPPE (listed as Homo sapiens) [SEQ ID NO. 7]",
    "proliferative T-cell response (SI)": 0.9
  },
  {
    "polymerSequence": "AERLTSRVKALFSVL (listed as Homo sapiens) [SEQ ID NO. 9]",
    "proliferative T-cell response (SI)": 0.8
  }
]

Field: next sequence
I have this sequence here, RLTSRVKALFSVLNY (listed as Homo sapiens) [SEQ ID NO. 8] , and I need its recorded proliferative T-cell response (SI).
0.9

---

System: T cells (patient PBMCs)
testSummary: T-cell proliferation assay (3H-thymidine) of patient PBMC/T cells with hTERT peptides or transfected DC
Type: cell-based, human
testConditions: patient Melanoma P7, GV1001-vaccinated, clinical responder
Decide using proliferative T-cell response (SI) alone. Strictly below 40: Condition met. Equal to or above 40: Condition not met.

Answered cases to consult:
[
  {
    "polymerSequence": "RTFVLRVRAQDPPPE (listed as Homo sapiens) [SEQ ID NO. 7]",
    "testedSystem": "T cells (patient PBMCs)",
    "classAssignment": "Condition met"
  },
  {
    "polymerSequence": "RLTSRVKALFSVLNY (listed as Homo sapiens) [SEQ ID NO. 8]",
    "testedSystem": "T cells (patient PBMCs)",
    "classAssignment": "Condition met"
  },
  {
    "polymerSequence": "EARPALLTSRLRFIPK (listed as Homo sapiens) [GV1001]",
    "testedSystem": "T cells (patient PBMCs)",
    "classAssignment": "Condition not met"
  }
]

Decide: proliferative T-cell response (SI) of ALFSVLNYERARRPGLLGASVLGLDDIHRA [SEQ ID NO. 1] strictly below 40?
Condition not met

Decide: proliferative T-cell response (SI) of AERLTSRVKALFSVL (listed as Homo sapiens) [SEQ ID NO. 9] strictly below 40?
Condition met

---

For each of the sequences below, state its proliferative T-cell response (SI).
Tested on: T cells (patient PBMCs)
testSummary: T-cell proliferation assay (3H-thymidine) of patient PBMC/T cells with hTERT peptides or transfected DC
Assay type: cell-based, human
testConditions: patient Lung ca P5, GV1001-vaccinated, clinical responder
Numbers only.

Example sequences with recorded proliferative T-cell response (SI):
[
  {
    "polymerSequence": "RLTSRVKALFSVLNY (listed as Homo sapiens) [SEQ ID NO. 8]",
    "resultNumber": 0.8
  },
  {
    "polymerSequence": "EARPALLTSRLRFIPK (listed as Homo sapiens) [GV1001]",
    "resultNumber": 20.1
  },
  {
    "polymerSequence": "ALFSVLNYERARRPGLLGASVLGLDDIHRA [SEQ ID NO. 1]",
    "resultNumber": 44.5
  },
  {
    "polymerSequence": "AERLTSRVKALFSVL (listed as Homo sapiens) [SEQ ID NO. 9]",
    "resultNumber": 1.2
  }
]

Field: next sequence
Fill in the recorded proliferative T-cell response (SI) for this sequence, with T cells (patient PBMCs) as test system: RTFVLRVRAQDPPPE (listed as Homo sapiens) [SEQ ID NO. 7]
1.1

---

Tested on: T cells (patient PBMCs)
testSummary: T-cell proliferation assay (3H-thymidine) of patient PBMC/T cells with hTERT peptides or transfected DC
Type: cell-based, human
testConditions: patient Melanoma P8, GV1001-vaccinated, clinical responder
Method: FIG. 1 is a bar graph summarising hTERT T-cell responses detected in pancreas cancer patient vaccinated with DC transfected with hTERT mRNA. In samples from various time points throughout a vaccination schedule, T-cell responses against 24 overlapping hTERT 15-mer peptides were detected. Proliferation in response to peptide-loaded PBMC was measured by ^3H-thymidine incorporation. A stimulation index of >2 is considered an immune response. […]
measuredAttribute: proliferative T-cell response (SI)
Numbers only.

// for each sequence below, give its proliferative T-cell response (SI)
1. RLTSRVKALFSVLNY (listed as Homo sapiens) [SEQ ID NO. 8]
2. ALFSVLNYERARRPGLLGASVLGLDDIHRA [SEQ ID NO. 1]
3. RTFVLRVRAQDPPPE (listed as Homo sapiens) [SEQ ID NO. 7]

1: 6.3; 2: 5.7; 3: 2.8

// for each sequence below, give its proliferative T-cell response (SI)
1. EARPALLTSRLRFIPK (listed as Homo sapiens) [GV1001]
2. AERLTSRVKALFSVL (listed as Homo sapiens) [SEQ ID NO. 9]

13.2
1

---

For each of the sequences below, state its proliferative T-cell response (SI).
System: T cells (patient PBMCs)
testSummary: T-cell proliferation assay (3H-thymidine) of patient PBMC/T cells with hTERT peptides or transfected DC
Format: cell-based, human
testConditions: patient Melanoma P6, GV1001-vaccinated, clinical non-responder, one time point
Answers are plain numbers.

Example sequences with recorded proliferative T-cell response (SI):
[
  {
    "polymerSequence": "EARPALLTSRLRFIPK (listed as Homo sapiens) [GV1001]",
    "testedSystem": "T cells (patient PBMCs)",
    "proliferative T-cell response (SI)": 21.4
  },
  {
    "polymerSequence": "AERLTSRVKALFSVL (listed as Homo sapiens) [SEQ ID NO. 9]",
    "testedSystem": "T cells (patient PBMCs)",
    "proliferative T-cell response (SI)": 1.3
  },
  {
    "polymerSequence": "RTFVLRVRAQDPPPE (listed as Homo sapiens) [SEQ ID NO. 7]",
    "testedSystem": "T cells (patient PBMCs)",
    "proliferative T-cell response (SI)": 4.8
  },
  {
    "polymerSequence": "ALFSVLNYERARRPGLLGASVLGLDDIHRA [SEQ ID NO. 1]",
    "testedSystem": "T cells (patient PBMCs)",
    "proliferative T-cell response (SI)": 1.8
  }
]

Field: next sequence
I have this sequence here, RLTSRVKALFSVLNY (listed as Homo sapiens) [SEQ ID NO. 8] , and I need its recorded proliferative T-cell response (SI).
0.8
